system: MDA-MB-435 melanoma; test: NCI-60 one-dose screen, 48 h (100 = growth as untreated, 0 = no growth, -100 = all killed); details: 10 µM unless noted
The panel holds about 83,000 compounds, 20% with a hit somewhere; the sample as a whole holds those more often.
METRIC NAME: growth (%)

>  <SMILES STR>
O=C(NCCNc1nccc(-c2c(-c3cccc(F)c3)nc3sccn23)n1)c1ccc(Cl)cc1

>  <METRIC NAME>
growth

>  <UNIT NAME>
%

>  <RECORDED VALUE>
32.1

$$$$
>  <SMILES STR>
CN1CCN(c2ccc(NC3=C(Cl)C(=O)c4ncccc4C3=O)cc2C(F)(F)F)CC1

>  <METRIC NAME>
growth

>  <UNIT NAME>
%

>  <RECORDED VALUE>
-62.5

$$$$
>  <SMILES STR>
NS(=O)(=O)c1ccc(CCn2c(SCC(=O)c3ccc(Cl)cc3)nc3ccccc3c2=O)cc1

>  <METRIC NAME>
growth

>  <UNIT NAME>
%

>  <RECORDED VALUE>
102

$$$$
>  <SMILES STR>
Cc1cnc(C(=O)Nc2nc3ccc(S(=O)(=O)Nc4ccc(C(C)(C)C)cc4)cc3[nH]2)cn1

>  <METRIC NAME>
growth

>  <UNIT NAME>
%

>  <RECORDED VALUE>
-64.6

$$$$
>  <SMILES STR>
CC1(C)CC[C@]2(C(=O)O)CC[C@]3(C)C(=CC[C@@H]4[C@@]5(C)Cc6c([nH]c7ccccc67)C(C)(C)[C@@H]5CC[C@]43C)[C@@H]2C1

>  <METRIC NAME>
growth

>  <UNIT NAME>
%

>  <RECORDED VALUE>
79.3

$$$$
>  <SMILES STR>
O=C(Cc1ccccc1)NNc1nc(Cl)nc(N2CCN(C(c3ccccc3)c3ccccc3)CC2)n1

>  <METRIC NAME>
growth

>  <UNIT NAME>
%

>  <RECORDED VALUE>
100

$$$$
>  <SMILES STR>
O=C1c2ccc3c4c(ccc(c24)C(=O)N1CCCNCc1ccccc1)C(=O)N(CCCNCc1ccccc1)C3=O

>  <METRIC NAME>
growth

>  <UNIT NAME>
%

>  <RECORDED VALUE>
-54

$$$$
>  <SMILES STR>
COc1cccc(C(=O)NNc2nc(Cl)nc(N3CCN(C(c4ccccc4)c4ccccc4)CC3)n2)c1

>  <METRIC NAME>
growth

>  <UNIT NAME>
%

>  <RECORDED VALUE>
97.2

$$$$
